# System: A. fumigatus MMX 5280 ATCC MYA-3626
# protocol: MIC/MEC assay (CLSI microdilution)
# Assay type: cell-based, Aspergillus fumigatus
# testConditions: Aspergillus fumigatus, 48 h, RPMI plus 0.002% Tween-80, read-out: MIC
# Method: Aureobasidin and test compounds (i.e., AbA derivatives of the present invention) were received from Kalexsyn, Inc. (Kalamazoo, Mich.) as powder and were stored at 4° C. until the day of assay. […] amphotericin was obtained from Sigma Aldrich and stored under like conditions. […] Ethanol (95%) was used as a solvent and diluent for all AbA compounds. Amphotericin B was tested from 0.06-64 μg/mL. […]
Numbered stars: 1 amine (or outer) side, 2 acyl side, 3 side chain; on linkers, the order of the positions; unused ones are H or OH. Square brackets hold non-standard residues; d marks the D form. Peptide text beside a SMILES is read from it. X13 = CN([C@@H](Cc1cccc(-c2ccc(N3CCN(C(=O)OC(C)(C)C)CC3)nc2)c1)C(=O)[*:2])[*:1]; X15 = CN([C@@H](Cc1cccc(-c2ccc(N3CCOCC3)nc2)c1)C(=O)[*:2])[*:1]; X30 = CN([C@@H](Cc1cccc(-c2ccc(Cl)c(Cl)c2)c1)C(=O)[*:2])[*:1]; X25 = CN([C@@H](Cc1cccc(-c2ccc3cccnc3c2)c1)C(=O)[*:2])[*:1]; Hmp(2R,3S) = CC[C@H](C)[C@@H](O)C(=O)O; NMeVal(β-OH) = CN[C@H](C(=O)O)C(C)(C)O; NMeV = CN[C@H](C(=O)O)C(C)C
endpoint: MIC

Solved entries:
compound: CC[C@H](C)[C@@H]1NC(=O)[C@@H]2CCCN2C(=O)[C@H](Cc2cccc(-c3ccc4cccnc4c3)c2)N(C)C(=O)[C@H](Cc2ccccc2)NC(=O)[C@H](C(C)C)N(C)C(=O)[C@@H]([C@@H](C)CC)OC(=O)[C@H](C(C)(C)O)N(C)C(=O)[C@H](CC(C)C)NC(=O)[C@H](C(C)C)N(C)C1=O [Compound 10] (cyclo(F[X25]PI[NMeV]L[NMeVal(β-OH)][Hmp(2R,3S)][NMeV]))
result: 1 µg/mL
//
compound: CC[C@H](C)[C@@H]1NC(=O)[C@@H]2CCCN2C(=O)[C@H](Cc2cccc(-c3ccc(Cl)c(Cl)c3)c2)N(C)C(=O)[C@H](Cc2ccccc2)NC(=O)[C@H](C(C)C)N(C)C(=O)[C@@H]([C@@H](C)CC)OC(=O)[C@H](C(C)(C)O)N(C)C(=O)[C@H](CC(C)C)NC(=O)[C@H](C(C)C)N(C)C1=O [Compound 2] (cyclo(F[X30]PI[NMeV]L[NMeVal(β-OH)][Hmp(2R,3S)][NMeV]))
result: > 64 µg/mL
//
compound: CC[C@H](C)[C@@H]1NC(=O)[C@@H]2CCCN2C(=O)[C@H](Cc2cccc(-c3ccc(N4CCN(C(=O)OC(C)(C)C)CC4)nc3)c2)N(C)C(=O)[C@H](Cc2ccccc2)NC(=O)[C@H](C(C)C)N(C)C(=O)[C@@H]([C@@H](C)CC)OC(=O)[C@H](C(C)(C)O)N(C)C(=O)[C@H](CC(C)C)NC(=O)[C@H](C(C)C)N(C)C1=O [Compound 26] (cyclo(F[X13]PI[NMeV]L[NMeVal(β-OH)][Hmp(2R,3S)][NMeV]))
result: > 64 µg/mL

Now look at this one.
So for CC[C@H](C)[C@@H]1NC(=O)[C@@H]2CCCN2C(=O)[C@H](Cc2cccc(-c3ccc(N4CCOCC4)nc3)c2)N(C)C(=O)[C@H](Cc2ccccc2)NC(=O)[C@H](C(C)C)N(C)C(=O)[C@@H]([C@@H](C)CC)OC(=O)[C@H](C(C)(C)O)N(C)C(=O)[C@H](CC(C)C)NC(=O)[C@H](C(C)C)N(C)C1=O [Compound 24] (cyclo(F[X15]PI[NMeV]L[NMeVal(β-OH)][Hmp(2R,3S)][NMeV])) , the logged MIC turned out to be > 64 µg/mL

###

# Test system: C. parapsilosis MMX 2323 ATCC 22019
# protocol: MIC assay (CLSI microdilution)
# Format: cell-based, Candida parapsilosis
# testConditions: ATCC22019, Without Tween-80; read-out: MIC
Numbered stars: 1 amine (or outer) side, 2 acyl side, 3 side chain; on linkers, the order of the positions; unused ones are H or OH. Square brackets hold non-standard residues; d marks the D form. Peptide text beside a SMILES is read from it. ξ: configuration not given here. X1 = CC(C)N1CCN(c2ccc(-c3cccc(C[C@@H](C(=O)[*:2])N(C)[*:1])c3)cc2)CC1; X26 = CC1CCN(c2cnc(-c3cccc(C[C@@H](C(=O)[*:2])N(C)[*:1])c3)cn2)CC1; X7 = CC(C)N1CCN(c2ccc(-c3cccc(C[C@H](N[*:1])C(=O)[*:2])c3)cc2)CC1; X31 = CN([C@@H](Cc1cccc(-c2cccc(C(F)(F)F)c2)c1)C(=O)[*:2])[*:1]; X14 = CN([C@@H](Cc1cccc(-c2ccc3ncccc3c2)c1)C(=O)[*:2])[*:1]; X18 = CN([C@@H](Cc1cccc(-c2ccc3ccncc3c2)c1)C(=O)[*:2])[*:1]; X23 = CN([C@@H](Cc1cccc(-c2cccc3c2cnn3C)c1)C(=O)[*:2])[*:1]; X27 = CN([C@@H](Cc1cccc(-c2cccc3ccccc23)c1)C(=O)[*:2])[*:1]; X33 = CN([C@@H](Cc1cccc(-c2ccc3ccccc3c2)c1)C(=O)[*:2])[*:1]; Hmp(2R,3S) = CC[C@H](C)[C@@H](O)C(=O)O; NMeVal(β-OH) = CN[C@H](C(=O)O)C(C)(C)O; X6 = CCC(C)[C@@H](O[*:1])C(=O)[*:2]; Ile(3ξ) = CCC(C)[C@H](N)C(=O)O; NMeV = CN[C@H](C(=O)O)C(C)C
Measured MIC by item
Hi! Could you send only the number? It should be in µg/mL, unit omitted.

compound: CC[C@H](C)[C@@H]1NC(=O)[C@@H]2CCCN2C(=O)[C@H](Cc2cccc(-c3ccc4ccccc4c3)c2)N(C)C(=O)[C@H](Cc2ccccc2)NC(=O)[C@H](C(C)C)N(C)C(=O)[C@@H]([C@@H](C)CC)OC(=O)[C@H](C(C)(C)O)N(C)C(=O)[C@H](CC(C)C)NC(=O)[C@H](C(C)C)N(C)C1=O [Compound 5] (cyclo(F[X33]PI[NMeV]L[NMeVal(β-OH)][Hmp(2R,3S)][NMeV]))
targetUnderTest: C. parapsilosis MMX 2323 ATCC 22019
MIC, µg/mL: 2

compound: CC[C@H](C)[C@@H]1NC(=O)[C@@H]2CCCN2C(=O)[C@H](Cc2cccc(-c3cccc4c3cnn4C)c2)N(C)C(=O)[C@H](Cc2ccccc2)NC(=O)[C@H](C(C)C)N(C)C(=O)[C@@H]([C@@H](C)CC)OC(=O)[C@H](C(C)(C)O)N(C)C(=O)[C@H](CC(C)C)NC(=O)[C@H](C(C)C)N(C)C1=O [Compound 14] (cyclo(F[X23]PI[NMeV]L[NMeVal(β-OH)][Hmp(2R,3S)][NMeV]))
targetUnderTest: C. parapsilosis MMX 2323 ATCC 22019
MIC, µg/mL: 1

compound: CCC(C)[C@@H]1NC(=O)[C@@H]2CCCN2C(=O)[C@H](Cc2cccc(-c3ccc4ncccc4c3)c2)N(C)C(=O)[C@H](Cc2ccccc2)NC(=O)[C@H](C(C)C)N(C)C(=O)[C@@H](C(C)CC)OC(=O)[C@H](C(C)(C)O)N(C)C(=O)[C@H](CC(C)C)NC(=O)[C@H](C(C)C)N(C)C1=O (stereo partly drawn) [Compound 18] (cyclo(F[X14]P[Ile(3ξ)][NMeV]L[NMeVal(β-OH)][X6][NMeV]))
targetUnderTest: C. parapsilosis MMX 2323 ATCC 22019
MIC, µg/mL: 1

compound: CC[C@H](C)[C@@H]1NC(=O)[C@@H]2CCCN2C(=O)[C@H](Cc2cccc(-c3ccc4ccncc4c3)c2)N(C)C(=O)[C@H](Cc2ccccc2)NC(=O)[C@H](C(C)C)N(C)C(=O)[C@@H]([C@@H](C)CC)OC(=O)[C@H](C(C)(C)O)N(C)C(=O)[C@H](CC(C)C)NC(=O)[C@H](C(C)C)N(C)C1=O [Compound 17] (cyclo(F[X18]PI[NMeV]L[NMeVal(β-OH)][Hmp(2R,3S)][NMeV]))
targetUnderTest: C. parapsilosis MMX 2323 ATCC 22019
MIC, µg/mL: 1

compound: CC[C@H](C)[C@@H]1NC(=O)[C@@H]2CCCN2C(=O)[C@H](Cc2cccc(-c3cccc(C(F)(F)F)c3)c2)N(C)C(=O)[C@H](Cc2ccccc2)NC(=O)[C@H](C(C)C)N(C)C(=O)[C@@H]([C@@H](C)CC)OC(=O)[C@H](C(C)(C)O)N(C)C(=O)[C@H](CC(C)C)NC(=O)[C@H](C(C)C)N(C)C1=O [Compound 4] (cyclo(F[X31]PI[NMeV]L[NMeVal(β-OH)][Hmp(2R,3S)][NMeV]))
targetUnderTest: C. parapsilosis MMX 2323 ATCC 22019
MIC, µg/mL: 2

So for CC[C@H](C)[C@@H]1NC(=O)[C@@H]2CCCN2C(=O)[C@H](Cc2cccc(-c3ccc(N4CCN(C(C)C)CC4)cc3)c2)N(C)C(=O)[C@H](Cc2cccc(-c3ccc(N4CCN(C(C)C)CC4)cc3)c2)NC(=O)[C@H](C(C)C)N(C)C(=O)[C@@H]([C@@H](C)CC)OC(=O)[C@H](C(C)(C)O)N(C)C(=O)[C@H](CC(C)C)NC(=O)[C@H](C(C)C)N(C)C1=O [Compound 31] (cyclo(I[NMeV]L[NMeVal(β-OH)][Hmp(2R,3S)][NMeV][X7][X1]P)) , the logged MIC turned out to be 2

So for CC[C@H](C)[C@@H]1NC(=O)[C@@H]2CCCN2C(=O)[C@H](Cc2cccc(-c3cnc(N4CCC(C)CC4)cn3)c2)N(C)C(=O)[C@H](Cc2ccccc2)NC(=O)[C@H](C(C)C)N(C)C(=O)[C@@H]([C@@H](C)CC)OC(=O)[C@H](C(C)(C)O)N(C)C(=O)[C@H](CC(C)C)NC(=O)[C@H](C(C)C)N(C)C1=O [Compound 11] (cyclo(F[X26]PI[NMeV]L[NMeVal(β-OH)][Hmp(2R,3S)][NMeV])) , the logged MIC turned out to be 1

So for CC[C@H](C)[C@@H]1NC(=O)[C@@H]2CCCN2C(=O)[C@H](Cc2cccc(-c3cccc4ccccc34)c2)N(C)C(=O)[C@H](Cc2ccccc2)NC(=O)[C@H](C(C)C)N(C)C(=O)[C@@H]([C@@H](C)CC)OC(=O)[C@H](C(C)(C)O)N(C)C(=O)[C@H](CC(C)C)NC(=O)[C@H](C(C)C)N(C)C1=O [Compound 9] (cyclo(F[X27]PI[NMeV]L[NMeVal(β-OH)][Hmp(2R,3S)][NMeV])) , the logged MIC turned out to be 1
